Entries annotated with measured GFP response vs DMSO
test: RPL19A-GFP modulators, yeast TOR pathway, confirmation, cell-based, S. cerevisiae, flow cytometry, cherry picks, mother/daughter gates (AID 2270); conditions: S. cerevisiae RPL19A-GFP strain, 3 h, at 10 µM, stronger effect = lower value, 100 = same GFP as DMSO wells

- molecule: "O=C1Oc2ccccc2C(=O)/C1=C/c1ccccc1O"
  GFP response vs DMSO (%): 91.3
- molecule: "CN1CCN(CC(=O)N2CCn3c4c(c5cc(C6CCCCC6)ccc53)CCCC42)CC1 (configuration not stated)"
  GFP response vs DMSO (%): 90.7
- molecule: "COc1ccc(N2C(=O)CC(Sc3ncn[nH]3)C2=O)c(OC)c1 (configuration not stated)"
  GFP response vs DMSO (%): 107
- molecule: "CCc1noc(C)c1C(=O)Nc1nc(-c2ccc(Cl)cc2Cl)c(C)s1"
  GFP response vs DMSO (%): 98.8
- molecule: "O=C(/C=C/c1cc(Br)ccc1O)c1ccco1"
  GFP response vs DMSO (%): 99.9
- molecule: "CCc1ccc2c(c1)C1(NN=C(c3ccccc3)S1)C(=O)N2 (configuration not stated)"
  GFP response vs DMSO (%): 101
- molecule: "O=C(c1ccc(OCC2CCCO2)cc1)N1CCN(c2ccccc2)CC1 (configuration not stated)"
  GFP response vs DMSO (%): 98.7
- molecule: "COC(=O)c1ccccc1NC(=O)c1nc(S(=O)(=O)Cc2ccccc2)ncc1Cl"
  GFP response vs DMSO (%): 102
- molecule: "CCOC(=O)c1sc(NC(=O)c2ccco2)nc1-c1ccccc1"
  GFP response vs DMSO (%): 97.8
- molecule: "CCOC(=O)Cc1csc(NC(=O)CCCCCN2C(=O)c3cccc4cccc(c34)C2=O)n1"
  GFP response vs DMSO (%): 98.7
- molecule: "O=c1c2c(-c3cccs3)csc2ncn1/N=C/c1ccccn1"
  GFP response vs DMSO (%): 98.4
- molecule: "CCCc1nnc(NC(=O)c2nc(S(=O)(=O)Cc3ccc(C)cc3)ncc2Cl)s1"
  GFP response vs DMSO (%): 98.9
- molecule: "O=S(=O)(c1ccc(Cl)cc1)c1snnc1-c1ccccc1"
  GFP response vs DMSO (%): 93.7
- molecule: "COc1ccc(-c2sc(C(=O)c3ccc(Cl)cc3Cl)cc2CC(=O)O)cc1"
  GFP response vs DMSO (%): 96
- molecule: "CC(=O)c1ccccc1NCC(=O)Nc1ccc(C)cc1"
  GFP response vs DMSO (%): 96.3
- molecule: "CCCc1cc(NCc2ccccn2)n2nc(C)c(-c3ccccc3)c2n1"
  GFP response vs DMSO (%): 108
- molecule: "COc1cc(/C=C2/N=C(c3ccccc3)OC2=O)c(F)cc1OCc1ccccc1"
  GFP response vs DMSO (%): 99.1
- molecule: "Nc1ccc(S(=O)(=O)c2ccccc2)nc1"
  GFP response vs DMSO (%): 103
- molecule: "Nc1cccc(C(=O)Nc2ccccc2Cl)c1"
  GFP response vs DMSO (%): 99.8
- molecule: "O=C(Nc1nc(-c2ccccc2)cs1)c1cccc([N+](=O)[O-])c1"
  GFP response vs DMSO (%): 102
- molecule: "O=[N+]([O-])c1ncccc1OCc1ccc(-c2ccccc2)cc1"
  GFP response vs DMSO (%): 101
- molecule: "O=[N+]([O-])c1ccccc1OCCOc1ccccc1[N+](=O)[O-]"
  GFP response vs DMSO (%): 103
- molecule: "CCOc1ccc(S(=O)(=O)n2ccnc2C)cc1"
  GFP response vs DMSO (%): 99.7
- molecule: "Cc1ccc(C2CC(c3ccco3)=NN2S(C)(=O)=O)cc1 (configuration not stated)"
  GFP response vs DMSO (%): 97.2
- molecule: "COc1ccc(C(=O)/C(=C/O)N=Nc2ccc(F)cc2)cc1"
  GFP response vs DMSO (%): 99.1
- molecule: "COc1ccc(/C=C/C(=O)c2ccccc2O)cc1"
  GFP response vs DMSO (%): 96.8
- molecule: "Cc1sc(NC(=O)c2ccco2)nc1-c1ccccc1"
  GFP response vs DMSO (%): 93.8
- molecule: "O=C(O)CCc1ccc(-c2ccc(Cl)cc2)o1"
  GFP response vs DMSO (%): 99
- molecule: "COc1ccc(N2C(=O)CC(Sc3nccc(C)n3)C2=O)cc1 (configuration not stated)"
  GFP response vs DMSO (%): 97.2
- molecule: "C[n+]1ccc(/C=C/c2c[nH]c3ccc(F)cc23)cc1"
  GFP response vs DMSO (%): 101
- molecule: "CC(=O)Oc1ccc(N2C(=O)C3C4C=CC(O4)C3C2=O)cc1 (configuration not stated)"
  GFP response vs DMSO (%): 98.2
- molecule: "CSc1nc2ccc(S(=O)(=O)N3CCCC3)cc2s1"
  GFP response vs DMSO (%): 90.5
- molecule: "Cc1c(O)ccc(C(=O)CN2CCN(c3ccc(F)cc3)CC2)c1O"
  GFP response vs DMSO (%): 98
- molecule: "CCN(CC)CCNC(=O)Cn1c(-c2ccccn2)nc2ccccc21"
  GFP response vs DMSO (%): 99.5
- molecule: "CCCC(=O)Nc1ccc(C(=O)/C=C/c2ccc(SC)cc2)cc1"
  GFP response vs DMSO (%): 99.5
- molecule: "CCCc1[nH]nc2c1C(c1ccc(OC(=O)c3ccco3)cc1)C(C#N)=C(N)O2 (configuration not stated)"
  GFP response vs DMSO (%): 99.9
- molecule: "O=C(Oc1oc(-c2ccco2)nc1C=Nc1ccc(Cl)cc1)c1ccco1"
  GFP response vs DMSO (%): 104
- molecule: "Cc1cc(Br)c2c(c1)/C(=C/C(=O)c1cccs1)C(=O)N2"
  GFP response vs DMSO (%): 99.6
- molecule: "COC(=O)CNc1c(-c2ccccn2)nc2ccc(Br)cn12"
  GFP response vs DMSO (%): 100
- molecule: "O=C(Nc1nc2ccc(F)cc2s1)c1ccccn1"
  GFP response vs DMSO (%): 102
- molecule: "Clc1ccc(-n2cccc2)cn1"
  GFP response vs DMSO (%): 101
- molecule: "CN1CCN(C(c2ccc(C(F)(F)F)cc2)c2ccc3cccnc3c2O)CC1 (configuration not stated)"
  GFP response vs DMSO (%): 93.6
- molecule: "O=C1[C@@H]2C3C=CC(O3)[C@@H]2C(=O)N1c1ccccc1"
  GFP response vs DMSO (%): 101
- molecule: "COc1ccc2ccccc2c1/C=N/Nc1cccc(C(=O)O)c1"
  GFP response vs DMSO (%): 99.4
- molecule: "COC(=O)Cn1cc(/C=C/c2cc[n+](C)cc2)c2ccccc21"
  GFP response vs DMSO (%): 99.3
- molecule: "CC(=O)Oc1oc(-c2ccccc2)nc1C=Nc1ccccc1"
  GFP response vs DMSO (%): 102
- molecule: "CN1C(=O)/C(=N\\OC(=O)c2cccc3ccccc23)c2ccccc21"
  GFP response vs DMSO (%): 102

The measured values listed here are drawn from PubChem BioAssay.
